B1: OR4K15 (parent)
chain: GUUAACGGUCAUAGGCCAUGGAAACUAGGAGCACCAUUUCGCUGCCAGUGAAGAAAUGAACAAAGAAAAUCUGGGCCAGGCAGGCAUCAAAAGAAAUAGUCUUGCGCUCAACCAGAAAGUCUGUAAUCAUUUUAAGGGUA

- Variants of: B1
- testProtocol: self-cleavage, relative activity (ratio to wild type); higher = more cleavage; in vitro, sequencing; the parent is a self-cleaving ribozyme
Could you please report measured self-cleavage for the items listed next?
One number for each entry.

{"sequenceRecord": "GUUAUCGGUCAUAGGCCAUGGAAACUAGGAGCACCAUUUCGCUGCCAGUGAAGAAAUGAACAAAGAAGAUCUGGGCCAGGCAGGCAUCAAAAGAAAUAGUCUUGCGCUCAACCAGAAAGUCUGUAAUCAUUUUAAGGGUA [A5U A68G]", "self-cleavage": 0.82}
{"sequenceRecord": "GUUAACGGUCAUAGGCCAUGGAAACUAGGAGCACCAUUUCGCUGCCAGUGAAGAAAUGAACAAGGAAAAUCUGGGCCAGGCAGGCAUCAAAAGAAAUAGUCUUGCGCUCAACCAGAAAGUCCGUAAUCAUUUUAAGGGUA [A64G U122C]", "self-cleavage": 1.81}
{"sequenceRecord": "GUUAACGGUCAUAGGCCAUGGAAACUAGGAGCACCAUUUCGCCGCCAGUGAAGAAAUGAACAAAGAAAAUCUGGGCCAGGCAGGCAUCAAAAGAAAUGGUCUUGCGCUCAACCAGAAAGUCUGUAAUCAUUUUAAGGGUA [U43C A98G]", "self-cleavage": 0.44}
{"sequenceRecord": "GUUAACGGUCAAAGGCCAUGGAAACUAGGAGCACCAUUUCGCUGCCAGUGAAGAAAUGAACAAAGAAAAACUGGGCCAGGCAGGCAUCAAAAGAAAUAGUCUUGCGCUCAACCAGAAAGUCUGUAAUCAUUUUAAGGGUA [U12A U70A]", "self-cleavage": 0.56}
{"sequenceRecord": "GUUAACGGUCCUAGGCCAUGGAAACUAGGAGCACCAUUUCGCUGCCAGUGAAGAAAUGAACAAAGAAAAUCUGGGCCCGGCAGGCAUCAAAAGAAAUAGUCUUGCGCUCAACCAGAAAGUCUGUAAUCAUUUUAAGGGUA [A11C A78C]", "self-cleavage": 0.16}
{"sequenceRecord": "GUUAACGGUCAUAGGCCAUGGAAACUAGGAGCACCAUUUCGCUGCCAGUGAAGAAAUGGACAAAGAAAAUCUGGGCCAGGCAGGCAUCAAAAGAAGUAGUCUUGCGCUCAACCAGAAAGUCUGUAAUCAUUUUAAGGGUA [A59G A96G]", "self-cleavage": 1.66}

Report self-cleavage for every entry below.
1. GUUAACGGUCAUGGGCCAUGGAAACUAGGAGCACCAUUUCGCUGCCAGUGAAGAAAUGAACAAAGAAAAUCUGGGCCAGGCAGGCAUCAAAAGAAAUAGUCUUGCGCUCAACCAGAAAGUCUGUAAUCAUUUCAAGGGUA [A13G U133C]
2. GUUAACGGUCAUAGGCCAUGGAGACUAGGAGCACCAUUUCGCUGCCAGUGAAGAAAUGAAAAAAGAAAAUCUGGGCCAGGCAGGCAUCAAAAGAAAUAGUCUUGCGCUCAACCAGAAAGUCUGUAAUCAUUUUAAGGGUA [A23G C61A]
3. GUUAACGGUCAUGGGCCAUGGAUACUAGGAGCACCAUUUCGCUGCCAGUGAAGAAAUGAACAAAGAAAAUCUGGGCCAGGCAGGCAUCAAAAGAAAUAGUCUUGCGCUCAACCAGAAAGUCUGUAAUCAUUUUAAGGGUA [A13G A23U]

Reply:
1. 1.84
2. 1.45
3. 1.32

Hi! Can you tell me self-cleavage for each of these variants?
1. GUUAACGGUCAUAGGUCAUGGAAACUAGGAGCACCAUUUCGCUGCCAGUGAAGAAAUGAACAAAGAAAAUCUGGGCCAGGCAGGCAUCAAAAGGAAUAGUCUUGCGCUCAACCAGAAAGUCUGUAAUCAUUUUAAGGGUA [C16U A94G]
2. GUUAACGGUCAUAGGCCAUGGAAACUAGGAGCACCAUUUCGCUGCCAGUGAAGAAAUGAACAAAGAAAAUCUGGGCCAGGCAGGCAUCAAAAGUAAUAGUCUUGCGCUCAACCAGAUAGUCUGUAAUCAUUUUAAGGGUA [A94U A117U]
3. GUUAACGGUCAUAGGCCAUGGAAACUAGGAGCACCAUUUCGCUGCCAGCGAAGAAAUGAACAAAGAAAAUCUGGACCAGGCAGGCAUCAAAAGAAAUAGUCUUGCGCUCAACCAGAAAGUCUGUAAUCAUUUUAAGGGUA [U49C G75A]
4. GUUAACGGUCAUAGGCCAUGGAAACUAGGAGCACCAUCUCGCUGCCAGUGAAGAAAUGAACAAAGAAAAUCUGGGCCAGGCAGGCAUCAAAAGUAAUAGUCUUGCGCUCAACCAGAAAGUCUGUAAUCAUUUUAAGGGUA [U38C A94U]

Reply:
1. 0.94
2. 0.82
3. 0.04
4. 2.15
